Experimental system: Nanoluciferase-BRD9 fusion protein (3×FLAG-NLuc-BRD9) in SYO-1 cells (Homo sapiens (Human))
Sequence (Q9H8M2 whole entry, the tested form may be a part): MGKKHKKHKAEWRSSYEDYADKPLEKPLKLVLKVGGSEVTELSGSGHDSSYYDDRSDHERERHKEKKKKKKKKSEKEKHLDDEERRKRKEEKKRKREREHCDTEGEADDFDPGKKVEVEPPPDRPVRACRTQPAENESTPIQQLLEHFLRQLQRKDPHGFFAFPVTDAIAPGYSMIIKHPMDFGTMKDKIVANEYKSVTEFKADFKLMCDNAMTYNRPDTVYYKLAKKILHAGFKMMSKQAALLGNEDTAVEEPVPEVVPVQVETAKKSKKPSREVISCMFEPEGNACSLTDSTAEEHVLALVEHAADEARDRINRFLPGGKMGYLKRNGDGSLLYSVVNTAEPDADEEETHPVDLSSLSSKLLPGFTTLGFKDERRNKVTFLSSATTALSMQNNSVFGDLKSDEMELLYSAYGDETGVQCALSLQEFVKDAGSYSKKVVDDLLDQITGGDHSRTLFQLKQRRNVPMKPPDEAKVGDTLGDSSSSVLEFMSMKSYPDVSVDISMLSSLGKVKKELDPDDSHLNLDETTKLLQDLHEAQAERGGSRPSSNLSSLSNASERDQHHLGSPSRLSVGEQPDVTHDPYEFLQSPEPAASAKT
Assay remarks: SYO1 BRD9 NanoLuc degradation assay
Type: cell-based
Particulars: SYO-1 cells expressing 3×FLAG-NLuc-BRD9, 6 hours incubation, top dose 1 μM
Procedure: Procedure: A stable SYO-1 cell line expressing 3×FLAG-NLuc-BRD9 was generated. On day 0 cells were seeded in 30 μL media into each well of 384-well cell culture plates. The seeding density was 8000 cells/well. […] Nanoluciferase activity was measured by adding 15 μL of freshly prepared Nano-Glo Luciferase Assay Reagent (Promega N1130), shaking the plates for 10 minutes and reading the bioluminescence using an EnVision reader. […]
pIC50: −log10 of the molar value.
Experimental endpoint: pIC50

So for COc1cc(-c2cn(C)c(=O)c3c2CCN(C(=O)NC2CC2)C3)cc(OC)c1CN1CCC(CCN2CCN(c3ccc4c(c3)CN(C3CCC(=O)NC3=O)C4=O)CC2)CC1 (stereo not drawn) , the logged pIC50 turned out to be > 8.00

The compound listed as CNC(=O)N1CCc2c(-c3cc(OC)c(CN4CCN(CCC5CCN(c6ccc7c(c6)C(=O)N(C6CCC(=O)NC6=O)C7=O)CC5)CC4C(F)F)c(OC)c3)cn(C)c(=O)c2C1 (stereo not drawn) shows pIC50 equal to > 8.00

API: the following record is the query input.
Entry CNC(=O)N1CCc2c(-c3cc(OC)c(CN4CC(N(C)c5ccc6c(c5)C(=O)N(C5CCC(=O)NC5=O)C6)C4)c(OC)c3)cn(C)c(=O)c2C1 (stereo not drawn) — recorded pIC50 = 7.00 to 8.00
